Reference source: the supplement of paper PMC3334620

Biological target: Stp1 (UniProt B3LFK1)
Sequence: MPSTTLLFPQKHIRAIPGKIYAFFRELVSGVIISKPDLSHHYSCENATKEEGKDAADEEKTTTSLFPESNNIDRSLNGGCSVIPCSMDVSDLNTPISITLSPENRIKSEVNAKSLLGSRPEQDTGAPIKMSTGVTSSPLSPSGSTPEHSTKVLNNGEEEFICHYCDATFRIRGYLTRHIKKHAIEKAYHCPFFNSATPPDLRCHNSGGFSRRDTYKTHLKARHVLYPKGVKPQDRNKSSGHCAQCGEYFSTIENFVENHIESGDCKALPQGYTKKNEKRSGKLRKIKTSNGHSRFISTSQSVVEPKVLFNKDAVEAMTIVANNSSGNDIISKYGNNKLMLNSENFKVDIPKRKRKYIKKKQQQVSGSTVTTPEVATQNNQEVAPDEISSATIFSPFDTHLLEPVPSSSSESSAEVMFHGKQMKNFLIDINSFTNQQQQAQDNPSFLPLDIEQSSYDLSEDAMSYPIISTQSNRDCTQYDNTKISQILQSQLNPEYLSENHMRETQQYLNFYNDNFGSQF
Experiment: PBM E-score (8-mer binding enrichment) (E-score (-0.5 to 0.5)); higher = stronger / more preferred TF binding
Details: protein concentration: 200 nM; construct: GST-full length
Over roughly 33,000 sequences, “E-score (-0.5 to 0.5)” has its median near -0.016; the highest 2% begin near 0.32. The entries come from a sample that favours the highest values as a whole.
Binary call on PBM E-score: Condition met from 0.1 upward, Condition not met beneath that.

   residue_string          label
0        ATGTGCCA  Condition met
1        AAAAAGTG  Condition met

Q: hey, is PBM E-score for this one >= 0.1? ATGTGCCC
A: Condition not met

Q: hey, is PBM E-score for this one >= 0.1? ATAAGGCA
A: Condition met

Q: hey, is PBM E-score for this one >= 0.1? ATAAGGCG
A: Condition met

Q: hey, is PBM E-score for this one >= 0.1? CCAAGGCC
A: Condition met

Q: hey, is PBM E-score for this one >= 0.1? ACGGGGCT
A: Condition not met

Q: hey, is PBM E-score for this one >= 0.1? CGCGATTC
A: Condition met

Q: hey, is PBM E-score for this one >= 0.1? ACAAGGCG
A: Condition met

Q: hey, is PBM E-score for this one >= 0.1? CTGTGCCC
A: Condition met

Q: hey, is PBM E-score for this one >= 0.1? GACAACAA
A: Condition not met
